- System: human FAP (Homo sapiens)
- Construct: the biotinylated His, Avi tag, human FAP (26-760, FAP-H82Q6); His; Avi tag (biotinylated); purchased AcroBiosystems FAP-H82Q6
- Sequence (Q12884 26-760): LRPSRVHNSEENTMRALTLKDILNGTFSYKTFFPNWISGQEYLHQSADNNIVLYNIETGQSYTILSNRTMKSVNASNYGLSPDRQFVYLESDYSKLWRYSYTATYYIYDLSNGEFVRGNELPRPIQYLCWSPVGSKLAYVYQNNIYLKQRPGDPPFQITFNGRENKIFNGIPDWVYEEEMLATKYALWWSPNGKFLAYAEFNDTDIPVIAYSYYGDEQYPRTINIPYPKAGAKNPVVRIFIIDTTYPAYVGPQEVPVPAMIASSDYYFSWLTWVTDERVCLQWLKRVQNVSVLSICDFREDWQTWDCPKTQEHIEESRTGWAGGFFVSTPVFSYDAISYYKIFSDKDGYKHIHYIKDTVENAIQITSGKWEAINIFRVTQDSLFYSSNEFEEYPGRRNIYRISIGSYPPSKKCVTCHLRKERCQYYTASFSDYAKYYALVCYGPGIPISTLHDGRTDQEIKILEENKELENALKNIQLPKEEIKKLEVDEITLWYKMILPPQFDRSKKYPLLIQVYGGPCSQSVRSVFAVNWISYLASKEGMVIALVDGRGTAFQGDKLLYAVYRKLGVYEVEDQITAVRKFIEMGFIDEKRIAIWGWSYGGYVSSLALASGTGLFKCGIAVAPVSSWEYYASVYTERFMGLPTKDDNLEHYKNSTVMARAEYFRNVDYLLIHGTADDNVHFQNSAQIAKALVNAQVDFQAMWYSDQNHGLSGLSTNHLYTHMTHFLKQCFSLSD
- Assay: Enzymatic FAP competition assay (Z-Gly-Pro-AMC fluorescence), human FAP
- Type: biochemical
- Setup Conditions: read-out: h. FAP, Enz., IC50
Starred links: 1 amine or outer side, 2 acyl side, 3 side chain; linkers in the order of their positions; H or OH if unused. Non-standard residues stand in square brackets, D forms with d. *: point of attachment. F(4amPEG2NHDOTA-Ga) = gallium complex of (S)-2,2',2''-(10-(1-(4-(2-amino-2-carboxyethyl)phenyl)-3,12-dioxo-5,8-dioxa-2,11-diazatridecan-13-yl)-1,4,7,10-tetraazacyclododecane-1,4,7-triyl)triacetic acid (Phe with 4-aminomethyl-PEG2-DOTA-Ga), O=C([O-])CN1CCN(CC(=O)[O-])CCN(CC(=O)NCCOCCOCC(=O)NCc2ccc(C[C@H](N[*:1])C(=O)[*:2])cc2)CCN(CC(=O)[O-])CC1.[Ga+3]; F(4OEtNHDOTA-Lu) = lutetium complex of (S)-2,2',2''-(10-(2-((2-(4-(2-amino-2-carboxyethyl)phenoxy)ethyl)amino)-2-oxoethyl)-1,4,7,10-tetraazacyclododecane-1,4,7-triyl)triacetic acid (Phe with 4-O-ethylamino-DOTA-Lu), O=C([O-])CN1CCN(CC(=O)[O-])CCN(CC(=O)NCCOc2ccc(C[C@H](N[*:1])C(=O)[*:2])cc2)CCN(CC(=O)[O-])CC1.[Lu+3]; F(4amPEG2NHAAZTA-Lu) = lutetium complex of (S)-2,2'-((6-(1-(4-(2-amino-2-carboxyethyl)phenyl)-3,12-dioxo-5,8-dioxa-2,11-diazahexadecan-16-yl)-1,4-bis(carboxymethyl)-1,4-diazepan-6-yl)azanediyl)diacetic acid (Phe with 4-aminomethyl-PEG2-AAZTA-L; K(COpipzaa) = N6-(4-(carboxymethyl)piperazine-1-carbonyl)-L-lysine, O=C(NCCCC[C@H](N[*:1])C(=O)[*:2])N1CCN(CC(=O)[*:3])CC1; COpipzaa = 4-(carboxymethyl)piperazine-1-carbonyl, O=C(O)CN1CCN(C(=O)*)CC1; F(4OEtNHRDOTAGA-Ga) = Phe with 4-O-ethyl-NH-DOTAGA, Ga complex; hS(Pr) = O-propyl-L-homoserine, CCCOCC[C@H](N[*:1])C(=O)[*:2]; 3Pal(6-NH2) = Nc1ccc(C[C@H](N)C(=O)O)cn1; NMeF = CN[C@@H](Cc1ccccc1)C(=O)O; Ahp(2) = CCCCC[C@H](N)C(=O)O
Experimental Readout: IC50 (nM)
Respond with the bare value in nM.

Let me check: Glu-Gly-NMePhe-F(4amPEG2NHDOTA-Ga)-hS(Pr)-Trp-Gly-K(COpipzaa)-Asp-D-Pro (cyclo(EG[NMeF][F(4amPEG2NHDOTA-Ga)][hS(Pr)]WG[K(COpipzaa)]D[dP]); also: Ga complex of DOTA) [Example C45] , system human FAP (Homo sapiens), measured IC50 is 0.019

Let me check: Gly-Gly-NMePhe-F(4amPEG2NHAAZTA-Lu)-hS(Pr)-Trp-Gly-K(COpipzaa)-Asp-D-Pro (cyclo(GG[NMeF][F(4amPEG2NHAAZTA-Lu)][hS(Pr)]WGK(COpipzaa)D[dP]); also: Lu complex) [Example C32] , system human FAP (Homo sapiens), measured IC50 is 0.017

Let me check: Gly-Gly-NMePhe-F(4OEtNHRDOTAGA-Ga)-Ahp-Trp-Gly-Tyr-Asp-D-Pro (cyclo(GG[NMeF][F(4OEtNHRDOTAGA-Ga)][Ahp(2)]WGYD[dP]); also: Ga complex of DOTAGA) [Example C38] , system human FAP (Homo sapiens), measured IC50 is 0.012

Let me check: Gly-Gly-NMePhe-F(4OEtNHDOTA-Lu)-Ahp-Trp-Gly-3PyA(6NH2)-Asp-D-Pro (cyclo(GG[NMeF][F(4OEtNHDOTA-Lu)][Ahp(2)]WG[3Pal(6-NH2)]D[dP]); also: Lu complex of DOTA) [Example C24] , system human FAP (Homo sapiens), measured IC50 is 0.013

Taken from patent US20250090699A1.
